- System: E. coli K-12 MG1655 (DA4201)
- protocol-notes: AgSol-antibiotic synergy screening assay / MIC (Ag/Antibiotic screen)
- Format: cell-based, Escherichia coli
- measurement-conditions: antibiotic in combination with AgSol1000 at ¼ × MIC silver; nutrient broth
endpoint-name: Antibiotic MIC, NB + AgSol1000
# answer = value followed by unit

QUERY: I'm curious: which Antibiotic MIC, NB + AgSol1000 was measured for NC[C@H]1O[C@H](O[C@H]2[C@H](O)[C@@H](O[C@H]3O[C@H](CO)[C@@H](O)[C@H](N)[C@H]3O)[C@H](N)C[C@@H]2N)[C@H](O)[C@@H](O)[C@@H]1O [Kanamycin] tested on E. coli K-12 MG1655 (DA4201)?
RESULT: 0.12 µg/mL

QUERY: Let us now turn to CN[C@@H]1[C@H](O)[C@H](NC)[C@H]2O[C@@]3(O)C(=O)C[C@@H](C)O[C@H]3O[C@@H]2[C@H]1O [Spectinomycin]
RESULT: 6 µg/mL

QUERY: Let us now turn to O=C(N[C@H](CO)[C@H](O)c1ccc([N+](=O)[O-])cc1)C(Cl)Cl [Chloramphenicol]
RESULT: 1.5 µg/mL

QUERY: Let us now turn to NC[C@H]1O[C@H](O[C@H]2[C@H](O)[C@@H](O[C@H]3O[C@H](CO)[C@@H](O)[C@H](N)[C@H]3O)[C@H](N)C[C@@H]2N)[C@H](N)C[C@@H]1O [Tobramycin]
RESULT: 0.047 µg/mL

Could I get Antibiotic MIC, NB + AgSol1000 for every one of these entries?
1. CO[C@H]1/C=C/O[C@@]2(C)Oc3c(C)c(O)c4c(O)c(c(/C=N/N5CCN(C)CC5)c(O)c4c3C2=O)NC(=O)/C(C)=C\C=C\[C@H](C)[C@H](O)[C@@H](C)[C@@H](O)[C@@H](C)[C@H](OC(C)=O)[C@@H]1C [Rifampicin]
2. CC1(C)S[C@@H]2[C@H](NC(=O)[C@H](N)c3ccccc3)C(=O)N2[C@H]1C(=O)O [Ampicillin]
3. [H]/N=C(/N)N[C@H]1[C@H](O)[C@@H](O)[C@H](O[C@@H]2O[C@@H](C)[C@](O)(C=O)[C@H]2O[C@@H]2O[C@@H](CO)[C@H](O)[C@@H](O)[C@@H]2NC)[C@@H](N/C(N)=N\[H])[C@@H]1O [Streptomycin]
4. CN(C)[C@@H]1C(O)=C(C(N)=O)C(=O)[C@@]2(O)C(O)=C3C(=O)c4c(O)cccc4[C@@](C)(O)[C@H]3C[C@@H]12 [Tetracycline]
5. CC[C@H]1OC(=O)[C@H](C)[C@@H](O[C@H]2C[C@@](C)(OC)[C@@H](O)[C@H](C)O2)[C@H](C)[C@@H](O[C@@H]2O[C@H](C)C[C@H](N(C)C)[C@H]2O)[C@](C)(O)C[C@@H](C)C(=O)[C@H](C)[C@@H](O)[C@]1(C)O [Erythromycin]
6. CO/N=C(\C(=O)N[C@@H]1C(=O)N2C(C(=O)O)=C(COC(C)=O)CS[C@H]12)c1csc(N)n1 [Cefotaxime]
7. O=C(O)c1cn(C2CC2)c2cc(N3CCNCC3)c(F)cc2c1=O [Ciprofloxacin]

RESULT:
["3 µg/mL", "2 µg/mL", "0.03 µg/mL", "0.5 µg/mL", "48 µg/mL", "0.047 µg/mL", "0.012 µg/mL"]

Where these numbers come from: patent US20210196738A1
